Target: hAT1R (Homo sapiens)
Sequence (P30556 1-359): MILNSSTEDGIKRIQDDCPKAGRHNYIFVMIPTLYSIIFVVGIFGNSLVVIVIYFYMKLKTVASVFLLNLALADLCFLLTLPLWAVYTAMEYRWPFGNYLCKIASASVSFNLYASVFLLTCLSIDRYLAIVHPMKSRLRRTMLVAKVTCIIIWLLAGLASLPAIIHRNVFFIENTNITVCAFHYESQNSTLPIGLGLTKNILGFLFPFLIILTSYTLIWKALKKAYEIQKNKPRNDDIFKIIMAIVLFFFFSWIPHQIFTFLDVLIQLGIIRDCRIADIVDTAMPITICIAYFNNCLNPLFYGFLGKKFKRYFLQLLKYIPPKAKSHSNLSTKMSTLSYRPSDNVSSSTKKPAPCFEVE
Assay: Assay 2: whole cell competition binding assay, HEK293 cells expressing AT1R
pIC50: −log10 of the molar value.
READOUT_TYPE: pIC50

Exercise: # query: pIC50 of entry CCCCOC(=O)NS(=O)(=O)c1sc(CC(C)C)cc1-c1ccc2c(c1)CCN(C(C)=O)C2 [Compound 86]
Solution: < 5.00

----------
biological target: hAT1R (Homo sapiens); assay type: binding; details: read-out: % Inhibition of hAT1R at 10 μM
// inhibition at 10 µM lookup, one value per entry
Kindly answer with a numeric value in %, unit omitted.

Consider the following illustrative entries.
ENTRY_SMILES: CCCCOC(=O)NS(=O)(=O)c1sc(CC(C)C)cc1-c1ccc2c(c1)CCN(C(C)=O)C2
EXPERIMENTAL_SYSTEM: hAT1R (Homo sapiens)
REPORTED_RESULT: 34

ENTRY_SMILES: CCCCOC(=O)NS(=O)(=O)c1sc(CC(C)C)cc1-c1cccc2c1CN(C(C)=O)C2
EXPERIMENTAL_SYSTEM: hAT1R (Homo sapiens)
REPORTED_RESULT: 15

ENTRY_SMILES: CCOC(=O)NS(=O)(=O)c1sc(CC(C)C)cc1-c1ccc2c(c1)CN(C(C)=O)C2
EXPERIMENTAL_SYSTEM: hAT1R (Homo sapiens)
REPORTED_RESULT: 7.7

ENTRY_SMILES: CCCCOC(=O)NS(=O)(=O)c1sc(CC(C)C)cc1-c1ccc2c(c1)CN(C(C)=O)CC2
EXPERIMENTAL_SYSTEM: hAT1R (Homo sapiens)
REPORTED_RESULT: 45

ENTRY_SMILES: CCCCOC(=O)NS(=O)(=O)c1sc(CC(C)C)cc1-c1ccc2c(c1)CN(C(C)=O)C2
EXPERIMENTAL_SYSTEM: hAT1R (Homo sapiens)
REPORTED_RESULT: 7.5

Exercise: Please give the measured inhibition at 10 µM for this molecule: CCOC(=O)NS(=O)(=O)c1sc(CC(C)C)cc1-c1ccc2c(c1)CN(C(=O)OCC)C2
Solution: 26

Exercise: Reported inhibition at 10 µM, molecule CCCCOC(=O)NS(=O)(=O)c1sc(CC(C)C)cc1-c1ccc(OC(F)(F)F)c(Cn2ccnc2)c1 : ____
Solution: 1.8

Exercise: For CCOC(=O)NS(=O)(=O)c1sc(CC(C)C)cc1-c1ccc2c(c1)CN(C)C(=O)C2 , what is its reported inhibition at 10 µM?
Solution: 1.5

----------
target: hAT2R (Homo sapiens); experiment: Assay 2: whole cell competition binding assay, HEK293 cells expressing AT2R
READOUT_TYPE: pIC50
Conceptually, pIC50 converts a concentration in mol/L into minus its log10.

Exercise: Which pIC50 is reported with hAT2R (Homo sapiens) for this entry: CCCCOC(=O)NS(=O)(=O)c1sc(CC(C)C)cc1-c1ccc2c(c1)CCN(C(C)=O)C2 ?
Solution: 6.09

----------
Target: hAT2R (Homo sapiens, UniProt P50052)
Sequence (P50052 1-363): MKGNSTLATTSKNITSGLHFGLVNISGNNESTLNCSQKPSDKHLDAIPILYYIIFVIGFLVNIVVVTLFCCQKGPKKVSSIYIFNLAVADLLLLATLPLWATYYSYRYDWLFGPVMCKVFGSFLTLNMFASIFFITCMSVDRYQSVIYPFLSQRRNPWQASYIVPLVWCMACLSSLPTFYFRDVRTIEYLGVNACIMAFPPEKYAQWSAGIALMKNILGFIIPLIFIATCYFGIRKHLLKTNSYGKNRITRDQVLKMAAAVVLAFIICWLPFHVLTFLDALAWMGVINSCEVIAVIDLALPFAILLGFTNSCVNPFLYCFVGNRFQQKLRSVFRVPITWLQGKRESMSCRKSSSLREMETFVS
READOUT_TYPE: log10 Ki (log10 of the value in nM)
// do not treat as linear: log10 of Ki, unit nM

The following compounds have reported results that may help.
COMPOUND: CCCCOC(=O)NS(=O)(=O)c1sc(CC(C)C)cc1-c1ccc2c(c1)CN(C(C)=O)CC2 [Compound 87]
log10 Ki: 2.43
--
COMPOUND: CCCCOC(=O)NS(=O)(=O)c1sc(CC(C)C)cc1-c1ccc2c(c1)CCN(C(C)=O)C2 [Compound 86]
log10 Ki: 1.75
--
COMPOUND: CCOC(=O)NS(=O)(=O)c1sc(CC(C)C)cc1-c1ccc2c(c1)CN(C(C)=O)C2 [Compound 88]
log10 Ki: 2.94
--
COMPOUND: CCOC(=O)NS(=O)(=O)c1sc(CC(C)C)cc1-c1ccc2c(c1)CN(C(=O)OCC)C2 [Compound 89]
log10 Ki: 3.11
--
COMPOUND: CCCCOC(=O)NS(=O)(=O)c1sc(CC(C)C)cc1-c1ccc2c(c1)CN(C(C)=O)C2 [Compound 85]
log10 Ki: 2.56

// switching to the query compound
Exercise: Which value of log10 Ki has been reported for CCOC(=O)NS(=O)(=O)c1sc(CC(C)C)cc1-c1ccc2c(c1)CN(C)C(=O)C2 [Compound 94] in the records?
Solution: 3.11
